Listing of recorded kon by entry.
Molecular target: T1, recombinant BACE1 (BACE1 extracellular domain, R&D Systems Cat#931-AS) (UniProt P56817 22-457)
T1 construct: extracellular domain; also called BACE1 extracellular domain protein
T1 sequence (P56817 22-457): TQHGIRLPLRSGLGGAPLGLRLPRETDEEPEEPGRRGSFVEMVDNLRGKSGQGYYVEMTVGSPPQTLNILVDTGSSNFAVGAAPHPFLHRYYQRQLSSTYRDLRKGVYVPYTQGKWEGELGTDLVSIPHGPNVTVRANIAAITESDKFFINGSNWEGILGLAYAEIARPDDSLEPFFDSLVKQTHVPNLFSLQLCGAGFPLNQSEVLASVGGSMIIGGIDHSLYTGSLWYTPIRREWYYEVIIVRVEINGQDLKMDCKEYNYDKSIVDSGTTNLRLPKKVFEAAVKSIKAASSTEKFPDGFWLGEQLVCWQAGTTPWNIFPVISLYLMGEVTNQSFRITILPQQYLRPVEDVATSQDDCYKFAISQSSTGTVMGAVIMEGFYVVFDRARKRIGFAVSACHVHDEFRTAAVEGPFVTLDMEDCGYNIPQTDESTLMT
Assay: SPR Biacore
The reply should contain only the number, in M⁻¹ s⁻¹.

INSERT INTO measurements (binder, value_kind, number) VALUES
  ('2H8.28 (antibody, human IgG1, V domains shown, human IgG1/kappa; also called 2H8_HCvar4 + 2H8_LCvar5) VH: EIQLQQSGTELVRPGTSVKLSCKASGYTFTNYWMHWVKQRPGQGLEWIGMIDPSAAYTNYNQNFKGKATLTVDTSSGTAYMQLSSLTSEDSAVYYCARSGVAFPYWGQGTTVTVSS VL: DIVMTQSQKFMSTSVGDRVSVTCKASQNVGTNVAWYQQKSGQSPKALIYSASHRYSGVPDRFTGSGSGTDFTLTISNVQSEDLAEYFCQQYNSYPYTFGGGTKLEIK', 'kon', 18200),
  ('2H8.16 (antibody, human IgG1, V domains shown, human IgG1/kappa; also called 2H8_HCvar4 + 2H8_LCvar3) VH: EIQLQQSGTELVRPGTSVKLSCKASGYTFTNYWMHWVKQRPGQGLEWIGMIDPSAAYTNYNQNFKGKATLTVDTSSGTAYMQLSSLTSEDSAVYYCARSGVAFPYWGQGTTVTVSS VL: DIQMTQSQKFMSTSIGDRVSVTCKASQNVGTNVAWYQQKPGQSPKSLIYSASHWYSGVPDRFTGSGSGTDFTLTISNVQSEDLAEYFCQQYNSYPYTFGGGTKLEIK', 'kon', 16700);

Lab note: next binder to report on.
kon measured on 2H8.33 (antibody, human IgG1, V domains shown, human IgG1/kappa; also called 2H8_HCvar3 + 2H8_LCvar6) VH: EVQLQQSGAELVRPGTSVKLSCKASGYTFTSYWIHWVKQRPGQGLEWIGMIDPSDSYTKYNQKFKDKATLTVDTSSSTTYMHLSSLTSEDSAVYYCARSGVAFPYWGQRTLVTVSA VL: DIQMTQSQKFMSKSVGDRVSVTCKASQNVGSNVAWYQQKSGQSPKSLIYSASHRYSGVPDRFTGSGSGTDFTLTISNVQSEDLADYFCQQYNSYPYTFGGGTRLEIK = 14500

Values compiled from patent US20210070881A1.
